Origin of measurements: paper PMC5640878

- test-system: GlyRα1^Q177Aβ (UniProt P48167+Q64018, Q205A)
- assay-info: whole-cell patch clamp recordings of transfected HEK293 cells
- condition-label: read-out: EC50 glycine; HEK293, α1:β 1:2, whole-cell currents, 1–3000 μM glycine
pEC50: −log10 of the molar value.
assay-metric: pEC50

1. NCC(=O)O | 3.68

====

- test-system: GlyRα1^Q177Rβ (UniProt P48167+Q64018, Q205R)
- assay-info: whole-cell patch clamp recordings of transfected HEK293 cells
assay-metric: EC50 (µM)

1) NCCC(=O)O [β-alanine] | 359

====

- test-system: GlyRα1^Q177Nβ (UniProt P48167+Q64018, Q205N)
- assay-info: whole-cell patch clamp recordings of transfected HEK293 cells
pEC50: −log10 of the molar value.
assay-metric: pEC50

1) NCCC(=O)O [β-alanine] | 3.69

====

- test-system: GlyRα1β WT (UniProt P48167+Q64018)
- Construct: expressed in transfected cells; host or cells: HEK293
- assay-info: whole-cell patch clamp recordings of transfected HEK293 cells
- Format: cell-based, murine
- condition-label: HEK293, co-expressed with GlyRβ, whole-cell, 3–10000 μM taurine; read-out: EC50 taurine
assay-metric: EC50 (µM)

1) NCCS(=O)(=O)O [taurine] | 593
